Known normalized growth of a selection of compounds
- ASSAY_COMMENT: chemical genetic growth profiling, strain panel (AID 1159580);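 also: tested at 20 µM; growth read once vehicle control cultures reached saturation at 30 °C; 1 = growth at the plate median or of vehicle wells; lower values mean less growth of the strain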
- EXPERIMENTAL_CONDITIONS: S. cerevisiae deletion strains, growth OD, locus YER015W, strain faa2, stronger effect = lower value
Hit rate of the full screen: of about 5,500 compounds, about 2,000 (36%) were called active. About 18% were inconclusive and are not listed. The list shows a part of the results.

Worked examples follow.
COMPOUND	ATTRIBUTE_MEASURED	MEASURED_VALUE
NC(=O)c1cc([N+](=O)[O-])cc([N+](=O)[O-])c1	normalized growth	1.02 (inactive)
CC[C@@]1(O)C(=O)OCc2c1cc1n(c2=O)Cc2cc3ccccc3nc2-1	normalized growth	0.784 (active)
Cc1ccc(-c2nc3ccc(C)cn3c2CC(=O)N(C)C)cc1	normalized growth	1.02 (inactive)

Entry under review: COc1cc(C(=O)N2CCOCC2)cc(OC)c1OC . Reported normalized growth?
0.989 (inactive)

Likewise for COc1ccc(-c2cc(=O)c3c(O)cc(O)c(-c4cc(-c5cc(=O)c6c(O)cc(O)cc6o5)ccc4OC)c3o2)cc1 ?
1.01 (inactive)

Likewise for C/C=C(\C)C(=O)O[C@@H]1c2c(ccc3ccc(=O)oc23)OC(C)(C)[C@@H]1OC(C)=O ?
1.01 (inactive)

Likewise for CC1(C)S[C@@H]2C(N3C(=O)[C@@H](c4ccccc4)NC3(C)C)C(=O)N2[C@H]1C(=O)O (stereo not given in full) ?
1 (inactive)
